assay: Functional Dkk1-LRP5-TCF-Luciferase Assay in U2OS Cells (table columns: A=MAX FOLD Induction/DMSO CONTROL; B=fold induction @ 2.0 uM; C=fold induction @ 20.0 uM); format: cell-based, Human; conditions: Homo sapiens, U2OS; 2.0 uM compound
reported_metric: fold induction at 2 µM

chemical_structure | assay_result
COc1cc(-c2nc3c(-c4ccc5ccccc5c4)ccnc3n2C2CCNCC2)ccc1O | 1.63
c1ccc2cc(-c3cnc4c(c3)nc(-c3ccnc5ccccc35)n4C3CCNCC3)ccc2c1 | 1.81
Cc1nc2c(-c3ccc4ccccc4c3)ccnc2n1C1CCNCC1 | 2.84
c1c[nH]c(-c2nc3c(-c4ccc5ccccc5c4)ccnc3n2C2CCNCC2)c1 | 1.25
Clc1nc2ccccc2cc1-c1nc2c(-c3ccc4ccccc4c3)ccnc2n1C1CCNCC1 | 1.6

====

The compounds listed here are annotated with their fold induction at 20 µM.
experiment: Functional Dkk1-LRP5-TCF-Luciferase Assay in U2OS Cells (table columns: A=MAX FOLD Induction/DMSO CONTROL; B=fold induction @ 2.0 uM; C=fold induction @ 20.0 uM); assay type: cell-based, Human; conditions: Homo sapiens, U2OS; 20.0 uM compound

chemical_structure | fold induction at 20 µM
Oc1ccccc1-c1nc2c(-c3ccc4ccccc4c3)ccnc2n1C1CCNCC1 | 0.01
c1ccc(CN2CCC(n3cnc4c(-c5ccc6ccccc6c5)ccnc43)CC2)cc1 | 0.08
COc1cc(-c2nc3c(-c4ccc5ccccc5c4)ccnc3n2C2CCNCC2)ccc1O | 0.01
c1ccc2cc(-c3cnc4c(c3)nc(C3CCCCC3)n4C3CCNCC3)ccc2c1 | 0.01
Clc1cncc(Cl)c1-c1nc2c(-c3ccc4ccccc4c3)ccnc2n1C1CCNCC1 | 0.29
O=[N+]([O-])c1cc(-c2nc3c(-c4ccc5ccccc5c4)ccnc3n2C2CCNCC2)ccc1N1CCOCC1 | 0.06
CCCc1nc2cc(-c3ccc4ccccc4c3)cnc2n1C1CCNCC1 | 0.01
Cc1nc2c(-c3ccc4ccccc4c3)ccnc2n1[C@H]1CCCNC1 | 0.02
c1coc(-c2nc3c(-c4ccc5ccccc5c4)ccnc3n2C2CCNCC2)c1 | 0.01
O=C(N1CCC(n2cnc3c(-c4ccc5ccccc5c4)ccnc32)CC1)C(F)(F)F | 0.39
Cc1ccc(CCn2cnc3c(-c4ccc5ccccc5c4)ccnc32)cc1 | 0.98
Cc1nc(-c2nc3c(-c4ccc5ccccc5c4)ccnc3n2C2CCNCC2)c[nH]1 | 0.02
O=[N+]([O-])c1ccc(-c2nc3c(-c4ccc5ccccc5c4)ccnc3n2C2CCNCC2)s1 | 0.01
COc1ncccc1-c1nc2cc(-c3ccc4ccccc4c3)cnc2n1C1CCNCC1 | 0.02
O=c1[nH]c2c(-c3ccc4ccccc4c3)ccnc2n1C1CCNCC1 | 0.04
O=C1OC2(c3ccc(O)cc3Oc3cc(O)ccc32)c2ccc(NC(=S)N3CCC(n4cnc5c(-c6ccc7ccccc7c6)ccnc54)CC3)cc21 | 6.49
[O-][n+]1ccc(-c2nc3c(-c4ccc5ccccc5c4)ccnc3n2C2CCNCC2)cc1 | 0.06
COC(=O)N1CCC(n2cnc3c(-c4ccc5ccccc5c4)ccnc32)CC1 | 1.02
c1ccc2cc(-c3ccnc4c3ncn4[C@@H]3CCCNC3)ccc2c1 | 1.4
CC(C)NC(=O)N1CCC(n2cnc3c(-c4ccc5ccccc5c4)ccnc32)CC1 | 0.84
Cn1c(=O)n(C2CCN(C(=O)N3CCOCC3)CC2)c2nccc(-c3ccc4ccccc4c3)c21 | 0.21
c1cncc(-c2nc3cc(-c4ccc5ccccc5c4)cnc3n2C2CCNCC2)c1 | 0.005
Cc1nc2c(-c3ccc4ccccc4c3)ccnc2n1C1CNC1 | 0.76
CS(=O)(=O)N1CCC(n2cnc3c(-c4ccc5ccccc5c4)ccnc32)CC1 | 2.52
Cc1nc2c(-c3ccc4ccccc4c3)ccnc2n1CC1CCNCC1 | 0.08
CN(C)C(=O)N1CCC(n2cnc3c(-c4ccc5ccccc5c4)ccnc32)CC1 | 2.09
c1ccc2cc(-c3ccnc4c3ncn4[C@H]3CCNC3)ccc2c1 | 0.44
O=C(N1CCOCC1)N1CCC(n2cnc3c(-c4ccc5ccccc5c4)ccnc32)CC1 | 1.25
c1coc(-c2nc3cc(-c4ccc5ccccc5c4)cnc3n2C2CCNCC2)c1 | 0.01
Cc1nc2c(-c3ccc4ccccc4c3)ccnc2n1[C@H]1CCNC1 | 0.4
Cc1nc2c(-c3ccc4ccccc4c3)ccnc2n1[C@@H]1CCCNC1 | 0.05
Cn1cccc1-c1nc2c(-c3ccc4ccccc4c3)ccnc2n1C1CCNCC1 | 0.01
c1ccc2cc(-c3ccnc4c3nc(-c3ccsc3)n4C3CCNCC3)ccc2c1 | 0.01
c1ccc2cc(-c3ccnc4c3nc(-c3ccc5occc5c3)n4C3CCNCC3)ccc2c1 | 1.02
Cc1ccc(CCn2c(C)nc3c(-c4ccc5ccccc5c4)ccnc32)cc1 | 1
